Values were extracted from patent US4387238A.

Below is a list of entries, each paired with its recorded ID50 value.
System under test: papain (Carica papaya, UniProt P00784)
Construct: purchased Sigma Chem. Co
Protocol notes: Papain inhibitory activity (milk casein proteolysis)
Format: biochemical
Set-up: unit not given beside the values
Details: amount of inhibitor for 50% inhibition; pH 6.8, 40° C., casein substrate

Solved cases (3 shown):
O=C(O)[C@@H]1O[C@H]1C(=O)N1CCCC1 (relative stereo) [Compound No. 103]
13.42 γ
CCOC(=O)[C@@H]1O[C@H]1C(=O)Nc1cccc(C(C)=O)c1 (relative stereo) [Compound No. 3]
34.72 γ
CCOC(=O)[C@@H]1O[C@H]1C(=O)Nc1cccc2cccnc12 (relative stereo) [Compound No. 12]
20.16 γ

[Q] Give the reported ID50 for CCNC(=O)[C@H]1O[C@@H]1C(=O)OC1CCCCC1 (relative stereo) [Compound No. 66, Cyclohexyl N-ethyl-2,3-epoxysuccinamate] (system: papain (Carica papaya, UniProt P00784)).
[A] 11.05 γ

----------
System under test: papain (Carica papaya)
Construct: purchased Sigma Chem. Co
Protocol notes: Papain inhibitory activity (milk casein proteolysis)
Type: biochemical
Parameters: unit not given beside the values
Details: amount of inhibitor for 50% inhibition; pH 6.8, 40° C., casein substrate
Experimental readout: ID50

CCOC(=O)[C@H]1O[C@@H]1C(=O)NCCCCCNC(=O)OCc1ccccc1 (relative stereo)
12.05 γ

[Q] For the molecule shown here, O=C(O)[C@@H]1O[C@H]1C(=O)NCC1CCCCC1 (relative stereo) , give the reported ID50.
[A] 0.205 γ

[Q] Now consider CCCNC(=O)[C@@H]1O[C@H]1C(=O)OCC (relative stereo) [Compound No. 16, ethyl N-propyl-2,3-epoxysuccinamate] .
[A] 22.73 γ

[Q] Now consider CCCOC(=O)[C@H]1O[C@@H]1C(=O)Nc1ccccc1 (relative stereo) [Compound No. 62, Propyl N-phenyl-2,3-epoxysuccinamate] .
[A] 6.16 γ

[Q] Now consider O=C(Nc1cccc(F)c1)[C@H]1O[C@@H]1C(=O)OCc1ccccc1 (relative stereo) .
[A] 3.94 γ

[Q] Now consider C#CCOC(=O)[C@@H]1O[C@H]1C(=O)N1CCCCC1 (relative stereo) .
[A] 39.62 γ

[Q] Now consider CCOC(=O)[C@@H]1O[C@H]1C(=O)NCC1CCCCC1 (relative stereo) .
[A] 20.49 γ

----------
System under test: papain (Carica papaya, UniProt P00784)
Construct: purchased Sigma Chem. Co
Sequence (P00784 134-345): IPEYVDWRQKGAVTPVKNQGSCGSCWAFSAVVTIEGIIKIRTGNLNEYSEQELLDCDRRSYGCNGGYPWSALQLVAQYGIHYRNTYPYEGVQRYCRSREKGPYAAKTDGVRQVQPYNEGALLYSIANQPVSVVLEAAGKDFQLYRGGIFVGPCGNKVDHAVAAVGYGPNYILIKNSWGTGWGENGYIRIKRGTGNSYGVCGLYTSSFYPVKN
Protocol notes: Papain inhibitory activity (milk casein proteolysis)
Type: biochemical
Design: unit not given beside the values
Details: amount of inhibitor for 50% inhibition; pH 6.8, 40° C., casein substrate
Below is a list of entries, each paired with its recorded ID50 value.

O=C(O)[C@@H]1O[C@H]1C(=O)NCc1ccccc1 (relative stereo) [Compound No. 96, potassium N-benzyl-2,3-epoxysuccinamate]
0.158 γ

[Q] For the compound shown here, CCCN(C(=O)[C@H]1O[C@@H]1C(=O)OCC)c1ccccc1 (relative stereo) , give the reported ID50.
[A] 154.50 γ

[Q] Now consider COC(=O)[C@@H]1O[C@H]1C(=O)Nc1ccccc1C (relative stereo) .
[A] 16.52 γ

[Q] Now consider CCOC(=O)[C@@H]1O[C@H]1C(=O)N1CCSCC1 (relative stereo) .
[A] 95.01 γ

[Q] Now consider COC(=O)[C@@H]1O[C@H]1C(=O)NC(C)C (stereo in doubt) [Compound No. 34, Methyl N-isopropyl-2,3-epoxysuccinamate] .
[A] 32.35 γ

[Q] Now consider O=C(Nc1ccccc1)[C@H]1O[C@@H]1C(=O)OCC1CC=CCC1 (relative stereo) .
[A] 1.63 γ

[Q] Now consider CCOC(=O)[C@@H]1O[C@H]1C(=O)NCCc1ccccc1 (relative stereo) [Compound No. 15, ethyl N-phenethyl-2,3-epoxysuccinamate] .
[A] 26.04 γ

[Q] Now consider O=C(Nc1ccccc1)[C@H]1O[C@@H]1C(=O)OC1CCCCC1 (relative stereo) [Compound No. 45, Cyclohexyl N-phenyl-2,3-epoxysuccinamate] .
[A] 5.89 γ

[Q] Now consider O=C(O)C1OC1C(=O)N1CCCC1C(=O)O (centres unmarked) [Compound No. 106] .
[A] 0.301 γ

[Q] Now consider CCOC(=O)C1OC1C(=O)N1CCSCC1C (centres unmarked) .
[A] 120.53 γ

[Q] Now consider COc1ccccc1NC(=O)[C@@H]1O[C@H]1C(=O)OCc1ccccc1 (relative stereo) .
[A] 2.91 γ

[Q] Now consider O=C(Nc1ccccc1)[C@@H]1O[C@H]1C(=O)OCCCC1CCCCC1 (relative stereo) .
[A] 3.05 γ

[Q] Now consider CC(C)NC(=O)[C@H]1O[C@@H]1C(=O)OCc1ccccc1 (relative stereo) [Compound No. 67, Benzyl N-isopropyl-2,3-epoxysuccinamate] .
[A] 5.14 γ

[Q] Now consider O=C(O)[C@@H]1O[C@H]1C(=O)Nc1ccccc1 (relative stereo) [Compound No. 105, N-phenyl-2,3-epoxysuccinamic acid] .
[A] 0.278 γ
